Hello, the source for this data is PubChem BioAssay AID1259374, in case you need it.

Overview of reported inhibition across a group of molecules:
MEASURED_TARGET: Microphthalmia-associated transcription factor (Homo sapiens)
ASSAY_DETAILS: MITF inhibitors, primary screen, biochemical, AlphaScreen, human (AID 1259374);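 further: 0% = vehicle wells with protein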
SETUP_CONDITIONS: AlphaScreen MITF homodimerization, bead proximity signal; at 2.6 µM; stronger effect = higher value
Out of some 650,000 compounds screened, about 5,900 (0.91%) were called active. The sample as a whole holds a higher share of actives than the screen did.

{"MOLECULE": "COC(=O)c1ccccc1NC(=O)CC1Nc2cc(C)c(C)cc2NC1=O (stereo not given)", "MEASURED_TARGET": "Microphthalmia-associated transcription factor (Homo sapiens)", "inhibition": "6.95% (inactive)"}
{"MOLECULE": "N#CC1=C(N)Oc2n[nH]c(-c3ccccc3)c2C1c1cc(Cl)cc(Cl)c1OC(=O)N1CCOCC1 (stereo not given)", "MEASURED_TARGET": "Microphthalmia-associated transcription factor (Homo sapiens)", "inhibition": "1.7% (inactive)"}
{"MOLECULE": "CCN(CC)CC(=O)Nc1nn(-c2ccccc2)nc1C(N)=O", "MEASURED_TARGET": "Microphthalmia-associated transcription factor (Homo sapiens)", "inhibition": "-0.44% (inactive)"}
{"MOLECULE": "CCOC(=O)C1CCN(c2nc(-c3cccc(C)c3)nc3ccccc23)CC1", "MEASURED_TARGET": "Microphthalmia-associated transcription factor (Homo sapiens)", "inhibition": "0.58% (inactive)"}
{"MOLECULE": "CCN(CC)CC(=O)Nc1c2c(nc3ccccc13)N(c1cccc(C)c1)CC2", "MEASURED_TARGET": "Microphthalmia-associated transcription factor (Homo sapiens)", "inhibition": "65.6% (active)"}

----------
MEASURED_TARGET: Microphthalmia-associated transcription factor (Homo sapiens)
ASSAY_DETAILS: MITF inhibitors, primary screen, biochemical, AlphaScreen, human (AID 1259374);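 further: 0% = vehicle wells with protein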
SETUP_CONDITIONS: AlphaScreen MITF homodimerization, bead proximity signal; at 2.6 µM; stronger effect = higher value
Screen size: about 650,000 compounds; about 5,900 (0.91%) were called active. This is one part of a sample in which actives are shown more often than they occur.

{"COMPOUND": "COc1ccccc1-n1cnnc1SCC(=O)Nc1sc2c(c1C#N)CCCC2", "inhibition [%]": -6.73}
{"COMPOUND": "COc1ccc(S(=O)(=O)N2CCN(Cc3ccccc3Cl)CC2)cc1", "inhibition [%]": 8.12}
{"COMPOUND": "COc1cc(CN2CCN(C3CCCC3)C(CCO)C2)cc(OC)c1OC (stereo unspecified)", "inhibition [%]": -4.18}
{"COMPOUND": "O=S(=O)(c1ccc(Br)cc1Cl)N1CCN(CCc2ccncc2)CC1", "inhibition [%]": 75.3}
{"COMPOUND": "COc1ccc(OC)c(CN2CCN(C3CCCCCC3)CC2)c1", "inhibition [%]": 49.2}
{"COMPOUND": "COc1cccc(C(=O)NC(c2cccc([N+](=O)[O-])c2)c2cc(Cl)c3cccnc3c2O)c1 (stereo unspecified)", "inhibition [%]": 4.72}
{"COMPOUND": "COc1ccc(CNCc2cccc(F)c2)c(OC)c1", "inhibition [%]": 17.1}
{"COMPOUND": "COc1cc(CN2CCOCC2)cc(OC)c1OC", "inhibition [%]": 5.88}
{"COMPOUND": "COc1ccc(CN2CCN(Cc3cccc(Br)c3)CC2)c(OC)c1", "inhibition [%]": 72.2}
{"COMPOUND": "COc1cc(CN2CCC(O)CC2)cc(OC)c1OC", "inhibition [%]": 20.4}
{"COMPOUND": "COc1ccc(OC)c(CN2CCN(Cc3ccccc3OC)CC2)c1", "inhibition [%]": 65.1}
